test system: Saccharomyces cerevisiae; experiment: Antifungal activity against Saccharomyces cerevisiae after 18 to 20 hrs by microbroth dilution method; format: functional
Where a SMILES comes first, the peptide text is derived from it. [ ]: non-standard residue; d: D form. Orn = NCCC[C@H](N)C(=O)O
Endpoint Name: MIC (µM)
# value in µM; strip the unit string

The cases that follow already have their MIC on record.
INSERT INTO results (compound, endpoint_name, quantity_unit, measured_number) VALUES
  ('CC[C@H](C)[C@H](NC(=O)[C@H](CCCNC(=N)N)NC(=O)CNC(=O)[C@H](CC(C)C)NC(=O)[C@H](Cc1ccccc1)NC(=O)[C@H](CCCNC(=N)N)NC(=O)[C@H](CO)NC(=O)[C@H](Cc1ccccc1)NC(=O)[C@H](Cc1c[nH]c2ccccc12)NC(=O)[C@H](CCC(N)=O)NC(=O)[C@@H](NC(=O)[C@@H](N)Cc1ccccc1)C(C)C)C(=O)N[C@@H](CC(C)C)C(N)=O (H-FVQWFSRFLGRIL-NH2)', 'MIC', 'µM', 12),
  ('CC[C@@H](C)[C@@H](NC(=O)[C@@H](CCCNC(=N)N)NC(=O)CNC(=O)[C@@H](CC(C)C)NC(=O)[C@@H](Cc1ccccc1)NC(=O)[C@@H](CCCCN)NC(=O)[C@@H](CO)NC(=O)[C@@H](Cc1ccccc1)NC(=O)[C@@H](Cc1c[nH]c2ccccc12)NC(=O)[C@@H](CCC(N)=O)NC(=O)[C@H](NC(=O)[C@H](N)Cc1ccccc1)C(C)C)C(=O)N[C@H](CC(C)C)C(N)=O', 'MIC', 'µM', 6),
  ('CC[C@H](C)[C@H](NC(=O)[C@H](CCCNC(=N)N)NC(=O)[C@@H]1CCCN1C(=O)[C@H](CC(C)C)NC(=O)[C@H](Cc1ccccc1)NC(=O)[C@H](CCCCN)NC(=O)[C@H](CO)NC(=O)[C@H](Cc1ccccc1)NC(=O)[C@H](Cc1c[nH]c2ccccc12)NC(=O)[C@@H]1CCCN1C(=O)[C@@H](NC(=O)[C@@H](N)Cc1ccccc1)C(C)C)C(=O)N[C@@H](CC(C)C)C(N)=O', 'MIC', 'µM', 12),
  ('CC[C@H](C)[C@H](NC(=O)[C@H](CCCN)NC(=O)CNC(=O)[C@H](CC(C)C)NC(=O)[C@H](Cc1ccccc1)NC(=O)[C@H](CCCCN)NC(=O)[C@H](CO)NC(=O)[C@H](Cc1ccccc1)NC(=O)[C@H](Cc1c[nH]c2ccccc12)NC(=O)[C@H](CCC(N)=O)NC(=O)[C@@H](NC(=O)[C@@H](N)Cc1ccccc1)C(C)C)C(=O)N[C@@H](CC(C)C)C(N)=O (H-FVQWFSKFLG[Orn]IL-NH2)', 'MIC', 'µM', 12);

Param item: CC[C@H](C)[C@H](NC(=O)[C@H](CCCNC(=N)N)NC(=O)CNC(=O)[C@H](CC(C)C)NC(=O)[C@H](Cc1ccccc1)NC(=O)[C@H](CCCCN)NC(=O)[C@H](CO)NC(=O)[C@H](Cc1ccccc1)NC(=O)[C@H](Cc1c[nH]c2ccccc12)NC(=O)[C@@H]1CCCN1C(=O)[C@@H](NC(=O)[C@@H](N)Cc1ccccc1)C(C)C)C(=O)N[C@@H](CC(C)C)C(N)=O (H-FVPWFSKFLGRIL-NH2) ; param system: Saccharomyces cerevisiae; output MIC: 6
